These measurements were taken from ChEMBL document CHEMBL5329184.

# key: entry, value: IC50
# Tested on: Trypanosoma cruzi
# protocol text: Antitrypanosomal activity against bloodstream Trypanosoma cruzi trypomastigotes infected in African green monkey Vero cells assessed as parasite growth inhibition incubated for 48 hrs by resazurin assay
endpoint: IC50 (µM)

> print(dat)
                    structure.smiles.string  target.under.test  relational.operator  recorded.measurement
1  O=[N+]([O-])c1ccc(/C=N/N=C/c2ccc(F)cc2)o1  Trypanosoma cruzi                    =                  1.95
2                  O=Cc1ccc([N+](=O)[O-])s1  Trypanosoma cruzi                    =                  1.62
3    O=[N+]([O-])c1ccc(/C=N/N=C/c2ccco2)cc1  Trypanosoma cruzi                    >                    10
4  O=[N+]([O-])c1ccc(/C=N/N=C/c2ccc([N+](=O)[O-])o2)cc1  Trypanosoma cruzi                    =                  0.78
5  O=[N+]([O-])c1ccc(/C=N/N=C/c2ccc(O)cc2)o1  Trypanosoma cruzi                    =                  1.74
6  O=[N+]([O-])c1ccc(/C=N/N=C/c2ccc(Cl)cc2)o1  Trypanosoma cruzi                    =                  3.05

====

# Test system: Leishmania major
# protocol text: Selectivity index, ratio of IC50 for antileishmanial activity against Leishmania major IR-173 promastigotes assessed as inhibition of parasite growth to IC50 for antileishmanial activity against Leishmania major IR-173 amastigote assessed as inhibition of parasite growth
# Assay type: functional
endpoint: Ratio IC50

> print(dat)
                    structure.smiles.string  recorded.measurement
1  O=[N+]([O-])c1ccc(/C=N/N=C/c2ccc(Br)cc2)o1                  1.19
2  O=[N+]([O-])c1ccc(/C=N/N=C/c2ccc([N+](=O)[O-])o2)cc1                  0.09
3                  O=Cc1ccc([N+](=O)[O-])o1                  1.42
4  O=[N+]([O-])c1ccc(/C=N/N=C/c2ccc(F)cc2)o1                   0.2
5  O=[N+]([O-])c1ccc(/C=N/N=C/c2ccc(Cl)cc2)o1                  0.17

====

# key: entry, value: IC50
# Test system: Trypanosoma cruzi
# protocol text: Antitrypanosomal activity against Trypanosoma cruzi epimastigotes assessed as parasite growth inhibition incubated for 48 hrs by resazurin staining based analysis
# Format: functional, organism-based
endpoint: IC50 (µM)

> print(dat)
                    structure.smiles.string  target.under.test  endpoint  relational.operator  recorded.measurement
1    O=[N+]([O-])c1ccc(/C=N/N=C/c2ccccc2)o1  Trypanosoma cruzi      IC50                    =                  7.66
2                  O=Cc1ccc([N+](=O)[O-])s1  Trypanosoma cruzi      IC50                    >                    10
3  O=[N+]([O-])c1ccc(/C=N/N=C/c2ccc(O)cc2)o1  Trypanosoma cruzi      IC50                    =                   7.3
4  O=[N+]([O-])c1ccc(/C=N/N=C/c2ccc(Cl)cc2)o1  Trypanosoma cruzi      IC50                    =                  2.41
5  COc1ccc(/C=N/N=C/c2ccc([N+](=O)[O-])o2)cc1  Trypanosoma cruzi      IC50                    =                  4.92
6                  O=Cc1ccc([N+](=O)[O-])o1  Trypanosoma cruzi      IC50                    >                    10
